Test system: LNCaP
method-notes: Sulforhodamine B (SRB) cytotoxicity assay
Assay type: cell-based
recorded-conditions: Homo sapiens, 96 h, drug incubation time 4 days
readout: IC50
Please don't drop the unit; write it after the number.

stdin: Find the measured IC50: item C[C@@](O)(CBr)C(=O)Nc1ccc([N+](=O)[O-])c(C(F)(F)F)c1 [S-NTBA] , target or system LNCaP.
stdout: 1.8 µM

---

System: DU 145
method-notes: Sulforhodamine B (SRB) cytotoxicity assay
Format: cell-based
recorded-conditions: Homo sapiens, DU-145, 96 h; drug incubation time 4 days
readout: IC50 (µM)
The response must be a number in µM with no trailing unit.

stdin: Record request: IC50 value, item C[C@@](O)(CBr)C(=O)Nc1ccc([N+](=O)[O-])c(C(F)(F)F)c1
stdout: 4.6

---

Test system: TCCSUP
method-notes: Sulforhodamine B (SRB) cytotoxicity assay
Assay type: cell-based
recorded-conditions: Homo sapiens, TCC-SUP, 96 h; drug incubation time 4 days
readout: IC50 (µM)
Respond numerically; units are µM and should not be typed.

stdin: # value lookup — system TCCSUP, readout IC50, item C[C@@](O)(CBr)C(=O)Nc1ccc([N+](=O)[O-])c(C(F)(F)F)c1 [S-NTBA]
stdout: 4.6
